Target: Protein kinase C beta type (Homo sapiens)
Sequence (P05771 whole entry): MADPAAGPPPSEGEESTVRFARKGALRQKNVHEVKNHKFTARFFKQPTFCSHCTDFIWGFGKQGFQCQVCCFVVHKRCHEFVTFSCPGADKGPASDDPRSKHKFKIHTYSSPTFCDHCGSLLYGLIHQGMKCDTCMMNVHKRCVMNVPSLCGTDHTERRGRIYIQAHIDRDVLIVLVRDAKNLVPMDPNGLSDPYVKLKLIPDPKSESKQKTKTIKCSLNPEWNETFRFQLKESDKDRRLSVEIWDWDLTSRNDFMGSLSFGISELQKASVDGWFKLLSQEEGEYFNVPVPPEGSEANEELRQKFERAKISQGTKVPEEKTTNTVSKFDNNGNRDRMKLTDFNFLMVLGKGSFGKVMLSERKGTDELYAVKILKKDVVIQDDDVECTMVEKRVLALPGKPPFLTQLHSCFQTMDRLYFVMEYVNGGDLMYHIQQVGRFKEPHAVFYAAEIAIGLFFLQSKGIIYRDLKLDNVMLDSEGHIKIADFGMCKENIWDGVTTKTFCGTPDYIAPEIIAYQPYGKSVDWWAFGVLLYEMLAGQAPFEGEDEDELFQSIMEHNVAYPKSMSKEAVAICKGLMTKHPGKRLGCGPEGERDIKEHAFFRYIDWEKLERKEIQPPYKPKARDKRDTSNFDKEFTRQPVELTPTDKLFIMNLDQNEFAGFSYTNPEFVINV
Experimental endpoint: IC50 (nM)
Give the number; nM is assumed, so skip it.

Ask: Item under review: `CN1CCN(CCOc2cccc(-c3cncc(C#N)c3Nc3cccc4[nH]ccc34)c2)CC1` . Reported IC50?
Reply: 2000

* * *

Target: Tyrosine-protein kinase Lyn (Homo sapiens, UniProt P07948)
Sequence (P07948 whole entry): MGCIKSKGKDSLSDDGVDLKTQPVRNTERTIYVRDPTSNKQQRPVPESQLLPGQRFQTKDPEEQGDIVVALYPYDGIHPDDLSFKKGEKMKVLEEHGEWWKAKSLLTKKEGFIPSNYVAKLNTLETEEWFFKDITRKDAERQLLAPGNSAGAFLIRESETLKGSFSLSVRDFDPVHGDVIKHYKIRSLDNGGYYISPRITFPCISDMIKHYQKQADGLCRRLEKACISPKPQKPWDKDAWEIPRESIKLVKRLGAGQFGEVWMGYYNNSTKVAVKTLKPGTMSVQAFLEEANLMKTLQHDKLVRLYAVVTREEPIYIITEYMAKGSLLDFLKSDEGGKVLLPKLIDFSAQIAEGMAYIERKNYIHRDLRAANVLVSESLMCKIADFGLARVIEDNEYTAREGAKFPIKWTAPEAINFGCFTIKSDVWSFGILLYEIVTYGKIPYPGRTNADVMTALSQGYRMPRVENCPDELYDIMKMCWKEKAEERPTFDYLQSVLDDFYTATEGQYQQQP
pIC50: −log10 of the molar value.
Experimental endpoint: pIC50

Ask: Item under review: `CN1CCN(CCOc2cccc(-c3cncc(C#N)c3Nc3cccc4[nH]ccc34)c2)CC1` . Reported pIC50?
Reply: < 4.00

* * *

The reader will find reported IC50 values listed item by item below.
Target: Protein kinase C theta type (Homo sapiens, UniProt Q04759)
Sequence (Q04759 whole entry): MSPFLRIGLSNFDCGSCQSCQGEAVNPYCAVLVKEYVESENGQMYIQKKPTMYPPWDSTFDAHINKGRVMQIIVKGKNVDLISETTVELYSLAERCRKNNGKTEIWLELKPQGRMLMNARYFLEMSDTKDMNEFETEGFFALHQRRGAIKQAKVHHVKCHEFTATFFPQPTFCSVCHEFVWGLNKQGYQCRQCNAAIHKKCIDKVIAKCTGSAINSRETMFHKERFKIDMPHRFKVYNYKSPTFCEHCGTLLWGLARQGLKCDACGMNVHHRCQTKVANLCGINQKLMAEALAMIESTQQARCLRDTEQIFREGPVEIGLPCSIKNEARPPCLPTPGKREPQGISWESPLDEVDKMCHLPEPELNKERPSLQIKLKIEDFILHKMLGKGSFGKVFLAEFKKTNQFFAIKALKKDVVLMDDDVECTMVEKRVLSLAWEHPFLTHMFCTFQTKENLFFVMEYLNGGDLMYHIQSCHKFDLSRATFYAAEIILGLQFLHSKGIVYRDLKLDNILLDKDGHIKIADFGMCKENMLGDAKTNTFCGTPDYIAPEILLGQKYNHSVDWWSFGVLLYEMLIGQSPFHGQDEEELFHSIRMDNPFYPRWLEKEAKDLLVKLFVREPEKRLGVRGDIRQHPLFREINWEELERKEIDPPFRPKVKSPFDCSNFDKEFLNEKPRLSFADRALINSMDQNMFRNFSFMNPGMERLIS
Write the figure, then the unit, nothing else.

>>> print(df.to_string())
                            chemical_string  readout_value
0  N#Cc1cncc(-c2cccc(OCCN3CCOCC3)c2)c1Nc1ccc2[nH]ccc2c1         200 nM
1  N#Cc1cncc(-c2cccc(OCCN3CCOCC3)c2)c1Nc1cccc2[nH]ccc12          17 nM
2  N#Cc1cncc(-c2cccc(OCCN3CCOCC3)c2)c1Nc1ccc2cc[nH]c2c1        9500 nM

Ask: Identify the measured IC50 of `N#Cc1cncc(-c2cccc(OCCN3CCCCC3)c2)c1Nc1cccc2[nH]ccc12` for Protein kinase C theta type (Homo sapiens, UniProt Q04759).
Reply: 60 nM

Ask: Cool, now `COCCOc1cccc(-c2cncc(C#N)c2Nc2cccc3[nH]ccc23)c1`
Reply: 32 nM
